In this section we review reported pIC50 values for a set of compounds.
target: rhSYK (Homo sapiens); details: read-out: rhSYK Activity; class symbol; where two forms are listed, one symbol per form
pIC50: −log10 of the molar value.

Example cases with answers are listed next.
CC(O)(c1cnccn1)c1ncc(-c2cccc(Nc3nccc(C(F)(F)F)n3)c2)s1 (stereo not shown)	> 7.00
OC(c1ccc(Br)cn1)(c1ncc(-c2cccc(Nc3nccc(C(F)(F)F)n3)c2)s1)C(F)F (stereo not shown)	6.00 to 7.00
Cc1cc(Nc2nccc(C(F)(F)F)n2)cc(-c2cnc(C(C)(O)c3cnc4sc(C(=O)O)c(C)c4c3)s2)c1 (stereo not shown)	> 7.00
Cc1cc(Nc2nccc(C(F)(F)F)n2)cc(-c2cnc(C(O)(CO)C(F)(F)F)s2)c1 (single isomer, unassigned) [Example 6-9]	> 7.00
Cc1cc(Nc2nccc(C(F)(F)F)n2)cc(-c2cnc(C3(O)CCCC4(OCCO4)C3(C)C)s2)c1 (stereo not shown)	6.00 to 7.00

Ask: In one line, give reported pIC50 of the entry OC(c1cccnc1)c1ncc(-c2cccc(Nc3nccc(C(F)(F)F)n3)c2)s1 (stereo not shown) .
Result: 6.00 to 7.00

Ask: In one line, give reported pIC50 of the entry Cc1cc(Nc2nccc(C(F)(F)F)n2)cc(-c2cnc(C(C)(O)c3cccc(-c4cccc(C(=O)O)c4)c3)s2)c1 (stereo not shown) .
Result: > 7.00

---

target: recombinant human SYK (GST-hSYK fusion protein) (Homo sapiens); assay: biochemical; conditions: rhSYK Activity, Table 33-A
Recorded metric: IC50

Example cases with answers are listed next.
CC1(C)CC(O)(c2ncc(-c3cc(Nc4nccc(C(F)(F)F)n4)cc(C(F)F)c3)s2)CCC1C(=O)O (stereo not shown) [Example 33A-56]	< 100 nM
Cc1cc(Nc2ncc(F)cn2)cc(-c2cnc(C3(O)CCC(C(=O)O)C(C)(C)C3)s2)c1 (single isomer, unassigned) [Example 33A-46]	100 to 1000 nM

Ask: In one line, give reported IC50 of the entry COC(=O)C1CCC(O)(c2ncc(-c3cccc(Nc4nccc(C(F)(F)F)n4)c3)s2)CC1(C)C (stereo not shown) [Example 33A-65] .
Result: 100 to 1000 nM

Ask: In one line, give reported IC50 of the entry Cc1cc(Nc2nccc(C(F)(F)F)n2)cc(-c2cnc(C3(O)CCC(C(=O)O)C(C)(C)C3C)s2)c1 (stereo not shown) [Example 33A-75] .
Result: < 100 nM

---

target: recombinant human SYK (GST-hSYK fusion protein) (Homo sapiens, UniProt P43405); test: biochemical; conditions: rhSYK Activity (IC50), recombinant human GST-SYK 5 pM, ATP 25 μM, biotinylated substrate peptide 250 nM, HTRF, 10-dose titration
pIC50: −log10 of the molar value.
In this section we review reported pIC50 values for a set of compounds.

Example cases with answers are listed next.
Cc1cc(Nc2nccc(C(F)(F)F)n2)cc(-c2cnc(CNCCOCCO)s2)c1 [Example 88A-42]	> 7.00
Cc1cc(Nc2nccc(C(F)(F)F)n2)cc(-c2cnc(CBr)s2)c1 [Example 90]	> 7.00
Cc1cc(Nc2nccc(C(F)(F)F)n2)cc(-c2cnc(CNCC3(CO)CCOCC3)s2)c1 [Example 88A-49]	> 7.00
Cc1cc(Nc2nccc(C(F)(F)F)n2)cc(-c2cnc(CNCCCN(CCO)CCO)s2)c1 [Example 88A-51]	> 7.00
Cc1cc(Nc2nccc(OCCCCOCc3ccccc3)n2)cc(-c2cnc(C3(O)CCC3)s2)c1 [Example 94A-11]	6.00 to 7.00

Ask: In one line, give reported pIC50 of the entry CCOC(=O)CCc1ncc(-c2cc(C)cc(Nc3nccc(C(F)(F)F)n3)c2)s1 [Example 79-1] .
Result: > 7.00

Ask: In one line, give reported pIC50 of the entry Cc1cc(Nc2nccc(OCc3cccnc3)n2)cc(-c2cnc(C3(O)CCC3)s2)c1 [Example 94A-2] .
Result: > 7.00

Ask: In one line, give reported pIC50 of the entry Cc1cc(Nc2nccc(C(F)(F)F)n2)cc(-c2cnc(CC3(C(=O)O)CCNC3=O)s2)c1 (stereo not shown) [Example 92] .
Result: > 7.00

Ask: In one line, give reported pIC50 of the entry Cc1cc(Nc2nccc(C(F)(F)F)n2)cc(-c2cnc(C3(O)CCC(O)C4(CC4)C3)s2)c1 (stereo not shown) [Example 143(A)] .
Result: > 7.00

Ask: In one line, give reported pIC50 of the entry COCCCOc1ccnc(Nc2cc(C)cc(-c3cnc(C4(O)CCC4)s3)c2)n1 [Example 94A-12] .
Result: > 7.00

Ask: In one line, give reported pIC50 of the entry COc1nc(Nc2cc(C)cc(-c3cnc(C4(O)CCC(O)CC4)s3)c2)ncc1C(F)(F)F (stereo not shown) [Example 100A-11] .
Result: 6.00 to 7.00

Ask: In one line, give reported pIC50 of the entry NC(=O)c1ncc(-c2cccc(Nc3nccc(C(F)(F)F)n3)c2)s1 [Example 87A-38] .
Result: > 7.00

Ask: In one line, give reported pIC50 of the entry Cc1cc(Nc2nccc(C(F)(F)F)n2)cc(-c2cnc(C(C)(C)c3nnco3)s2)c1 [Example 82] .
Result: > 7.00

Ask: In one line, give reported pIC50 of the entry COc1nc(Nc2cc(C)cc(-c3cnc(C4(O)CCC4)s3)c2)ncc1Cl [Example 102] .
Result: > 7.00

Ask: In one line, give reported pIC50 of the entry Cc1cc(Nc2nccc(C(F)(F)F)n2)cc(-c2cnc(C(=O)N3CCCC3)s2)c1 [Example 87B-1] .
Result: 6.00 to 7.00

Ask: In one line, give reported pIC50 of the entry Cc1cc(Nc2nccc(C(F)(F)F)n2)cc(-c2cnc(C3(O)CCNC(=O)CC3)s2)c1Br (single isomer, unassigned) [Example 111-2] .
Result: > 7.00

Ask: In one line, give reported pIC50 of the entry Cc1cc(Nc2nccc(C(F)(F)F)n2)cc(-c2cnc(C3(O)CC(C)(C)C(C(=O)O)CC3O)s2)c1 (stereo not shown) [142(1)] .
Result: > 7.00

Ask: In one line, give reported pIC50 of the entry Cc1cc(Nc2nccc(C(F)(F)F)n2)cc(-c2cnc(C3(N)CCNC(=O)CC3)s2)c1 (stereo not shown) [Example 162] .
Result: > 7.00

Ask: In one line, give reported pIC50 of the entry Cc1cc(Nc2nccc(C(F)(F)F)n2)cc(-c2cnc(CCc3nnc(C4CC4)o3)s2)c1 [Example 79-9] .
Result: > 7.00

Ask: In one line, give reported pIC50 of the entry Cc1cc(Nc2nccc(C(F)(F)F)n2)cc(-c2cnc(C(C)(C)C(=O)N3CCOCC3)s2)c1 [Example 85A-3] .
Result: > 7.00

Ask: In one line, give reported pIC50 of the entry Cc1cc(Nc2nccc(C(F)(F)F)n2)cc(-c2cnc(C3(C(N)=O)CC3)s2)c1 [Example 85B-3] .
Result: > 7.00

Ask: In one line, give reported pIC50 of the entry Cc1cc(Nc2nccc(C(F)(F)F)n2)cc(-c2cnc(C(=O)N3C[C@@H](O)[C@@H](O)C3)s2)c1 [Example 87B-18] .
Result: > 7.00

Ask: In one line, give reported pIC50 of the entry Cc1cc(Nc2nccc(C(F)(F)F)n2)cc(-c2cnc(C(=O)N3CCN(C)C(=O)C3C)s2)c1 (stereo not shown) [Example 87B-5] .
Result: 6.00 to 7.00

Ask: In one line, give reported pIC50 of the entry CNC(=O)C1(c2ncc(-c3cc(C)cc(Nc4nccc(C(F)(F)F)n4)c3)s2)CC1 [Example 85B-2] .
Result: > 7.00

Ask: In one line, give reported pIC50 of the entry Cc1cc(Nc2nccc(C(F)(F)F)n2)cc(-c2cnc(C(=O)NC[C@@H](O)CO)s2)c1 [Example 87] .
Result: > 7.00
